- test_method_notes: Induction of IFN-gamma secretion in human CD161+ CD3+ NKT cells at 10 ug/ml after 18 hrs relative to basal level
- Assay type: functional
attribute_measured: Activity
Simply state the number, no unit and no words.

Summary for this compound, "CCCCCCCCCCCCCCCCCCCCCCCCCC(=O)N[C@@H](CS[C@H]1O[C@H](CO)[C@H](O)[C@H](O)[C@H]1O)[C@H](O)[C@H](O)CCCCCCCCCCCCCC" : Activity is 1.3

Entry "CCCCCCCCCCCCCCC[C@@H](O)[C@H](CO[C@H]1O[C@H](C(=O)O)[C@H](O)[C@H](O)[C@H]1O)NC(=O)CCCCCCCCCCCCC" ; Activity = 2.4

Query "CCCCCCCCCCCCCC[C@@H](O)[C@@H](O)[C@H](CO[C@H]1O[C@H](CO)[C@H](O)[C@H](O)[C@H]1O)NC(=O)CCCCCCCCCCc1ccccc1" yields Activity of 6.2

Short answer for "CCCCCCCCCCCCCC[C@@H](O)[C@@H](O)[C@H](CO[C@H]1O[C@H](CO)[C@H](O)[C@H](O)[C@H]1O)NC(=O)CCCCCCCCCCCCC" : Activity was 2.7

// "CCCCCCCCCCCCCCCCCCCCCCCCCC(=O)N[C@@H](CO[C@H]1O[C@H](CO)[C@H](O)[C@H](O)[C@H]1O)[C@H](O)[C@H](O)CCCCCCCCCCCCCC" : Activity value = 3.4

====

Could you please report measured Activity for the items listed next?
- test_method_notes: Induction of IL12p40 secretion in human CD161+ CD3+ NKT cells at 10 ug/ml after 18 hrs relative to basal level
- Assay type: functional
Could you respond with only the numeric value?

Given item "CCCCCCCCCCCCCCCCCCCCCCCCCC(=O)N[C@@H](CO[C@H]1O[C@H](CO)[C@H](O)[C@H](O)[C@H]1O)[C@H](O)[C@H](O)CCc1ccccc1" , the value recorded as its Activity is 1.8

For record "CCCCCCCCCCCCCC[C@@H](O)[C@@H](O)[C@H](CO[C@H]1O[C@H](CO)[C@H](O)[C@H](O)[C@H]1O)NC(=O)CCCCCCCCCCCCC" the listed Activity is 1.7

Activity for "CCCCCCCCCCCCCC[C@@H](O)[C@@H](O)[C@H](CO[C@H]1O[C@H](CO)[C@H](O)[C@H](O)[C@H]1O)NC(=O)CCc1ccc(C(F)(F)F)cc1" is 1.9

// field: Activity; key: "CCCCCCCCCCCCCC[C@@H](O)[C@@H](O)[C@H](CO[C@H]1O[C@H](CO)[C@H](O)[C@H](O)[C@H]1O)NC(=O)CCCCCCCCCCc1ccccc1" ; value = 2.1

Given item "CCCCCCCCCCCCCC[C@@H](O)[C@@H](O)[C@H](CO[C@H]1O[C@H](CO)[C@H](O)[C@H](O)[C@H]1O)NC(=O)CCCc1ccccc1" , the value recorded as its Activity is 1.4

Looking up "CCCCCCCCCCCCCCCCCCCCCCCCCC(=O)N[C@@H](CO[C@H]1O[C@H](CO)[C@H](O)[C@H](O)[C@H]1O)[C@H](O)[C@H](O)CCCCCCCCCCCCCC" , I found its Activity recorded as 1.4

====

- test_method_notes: Induction of IL10 secretion in human CD161+ CD3+ NKT cells at 10 ug/ml after 18 hrs relative to basal level
- Format: functional
attribute_measured: Activity
Enter a number only.

Form field Activity, entry "CCCCCCCCCCCCCC[C@@H](O)[C@@H](O)[C@H](CO[C@H]1O[C@H](CO)[C@H](O)[C@H](O)[C@H]1O)NC(=O)CCCCCc1ccccc1" : 2.4

The compound "CCCCCCCCCCCCCCCCCCCCCCCCCC(=O)N[C@@H](CO[C@H]1O[C@H](CO)[C@H](O)[C@H](O)[C@H]1O)[C@H](O)[C@H](O)CCCCC" showed Activity equal to 1.5

According to the records, this compound "CCCCCCCCCCCCCCCCCCCCCCCCCC(=O)N[C@@H](CO[C@H]1O[C@H](CO)[C@H](O)[C@H](OS(=O)(=O)[O-])[C@H]1O)[C@H](O)[C@H](O)CCCCCCCCCCCCCC.[Na+]" displays Activity of 2.5

Notebook: "CCCCCCCCCCCCCCCCCCCCCCCCCC(=O)N[C@@H](CO[C@H]1O[C@H](C(=O)O)[C@H](O)[C@H](O)[C@H]1O)[C@H](O)[C@H](O)CCCCCCCCCCCCCC" , Activity read as 0.7

Looking up CCCCCCCCCCCCCCCCCCCCCCCCCC(=O)N[C@@H](CO[C@H]1O[C@H](CO)[C@H](O)[C@H](O)[C@H]1O)[C@H](O)[C@H](O)CCCCCCCCCCCCCC [RGI-7000] , I see its Activity listed as 1.2

Entry "CCCCCCCCCCCCCC[C@@H](O)[C@@H](O)[C@H](CO[C@H]1O[C@H](CO)[C@H](O)[C@H](O)[C@H]1O)NC(=O)CCCCCCCCCCc1ccccc1" ; Activity = 1.8

====

Consider the following compounds; for each one, report its Activity.
- Test system: Mus musculus
- test_method_notes: Induction of GM-CSF secretion in BALB/c mouse serum at 2 ug, iv after 2 hrs relative to control
- Format: functional

// "CCCCCCCCCCCCCCCCCCCCCCCCCC(=O)N[C@@H](CO[C@H]1O[C@H](CO)[C@H](O)[C@H](O)[C@H]1O)[C@H](O)[C@H](O)CCCCCCCCCCCCCC" : Activity value = 13.1

Reported Activity of "CCCCCCCCCCCCCC[C@@H](O)[C@@H](O)[C@H](CO[C@H]1O[C@H](CO)[C@H](O)[C@H](O)[C@H]1O)NC(=O)CCCCCCCCCCCCC" : 1.6

# Activity (compound: "CCCCCCCCCCCCCCCCCCCCCCCCCC(=O)N[C@@H](CO[C@H]1O[C@H](C(=O)O)[C@H](O)[C@H](O)[C@H]1O)[C@H](O)[C@H](O)CCCCCCCCCCCCCC" ) is 37.6

"CCCCCCCCCCCCCC[C@@H](O)[C@@H](O)[C@H](CO[C@H]1O[C@H](CO)[C@H](O)[C@H](O)[C@H]1O)NC(=O)CCCCCCCc1ccccc1" yielded Activity of 2.9

Activity recorded for this compound, "CCCCCCCCCCCCCCC[C@@H](O)[C@H](CO[C@H]1O[C@H](C(=O)O)[C@H](O)[C@H](O)[C@H]1O)NC(=O)CCCCCCCCCCCCC" , is 4.9

Just so you know, measured Activity for "CCCCCCCCCCCCCCCCCCCCCCCCCC(=O)N[C@@H](CO[C@H]1O[C@H](CO)[C@H](O)[C@H](OS(=O)(=O)[O-])[C@H]1O)[C@H](O)[C@H](O)CCCCCCCCCCCCCC.[Na+]" came out at 7.3

// "CCCCCCCCCCCCCC[C@@H](O)[C@@H](O)[C@H](CO[C@H]1O[C@H](CO)[C@H](O)[C@H](O)[C@H]1O)NC(=O)CCCCCCCCCCc1ccccc1" : Activity value = 2.7

Lookup result for "CCCCCCCCCCCCCCCCCCCCCCCCCC(=O)N[C@@H](CO[C@H]1O[C@H](CO)[C@H](O)[C@H](O)[C@H]1O)[C@H](O)[C@H](O)CCc1ccccc1" ; measured Activity: 7.9

====

- System: Mus musculus
- test_method_notes: Induction of MCP1 secretion in BALB/c mouse serum at 2 ug, iv after 2 hrs relative to control
- Assay type: functional
Activity strictly under 20 means true; at 20 or over means false.

Qu. Hi there! Is Activity for "CCCCCCCCCCCCCC[C@@H](O)[C@@H](O)[C@H](CO[C@H]1O[C@H](CO)[C@H](O)[C@H](O)[C@H]1O)NC(=O)CCCCCCCCCCCCC" below 20, do you know?
Ans. true

Qu. Hi there! Is Activity for "CCCCCCCCCCCCCCCCCCCCCCCCCC(=O)N[C@@H](CO[C@H]1O[C@H](C(=O)O)[C@H](O)[C@H](O)[C@H]1O)[C@H](O)[C@H](O)CCCCCCCCCCCCCC" below 20, do you know?
Ans. true

Qu. I'd appreciate it if you could check whether "CCCCCCCCCCCCCCCCCCCCCCCCCC(=O)N[C@@H](CO[C@H]1O[C@H](CO)[C@H](O)[C@H](O)[C@H]1O)[C@H](O)[C@H](O)CCc1ccccc1" has Activity smaller than 20.
Ans. false

Qu. Is Activity of "CCCCCCCCCCCCCC[C@@H](O)[C@@H](O)[C@H](CO[C@H]1O[C@H](CO)[C@H](O)[C@H](O)[C@H]1O)NC(=O)CCCCCCCc1ccccc1" strictly below 20?
Ans. true

Qu. # TODO verify Activity < 20 strictly for this molecule: CCCCCCCCCCCCCCCCCCCCCCCCCC(=O)N[C@@H](CO[C@H]1O[C@H](CO)[C@H](O)[C@H](O)[C@H]1O)[C@H](O)[C@H](O)CCCCCCCCCCCCCC [RGI-7000]
Ans. true

Qu. Problem: For the molecule "CCCCCCCCCCCCCCCCCCCCCCCCCC(=O)N[C@@H](CO[C@H]1O[C@H](CO)[C@H](O)[C@H](OS(=O)(=O)[O-])[C@H]1O)[C@H](O)[C@H](O)CCCCCCCCCCCCCC.[Na+]" , is Activity under 20?
Ans. true

Qu. Just wondering, is Activity of "CCCCCCCCCCCCCCC[C@@H](O)[C@H](CO[C@H]1O[C@H](C(=O)O)[C@H](O)[C@H](O)[C@H]1O)NC(=O)CCCCCCCCCCCCC" below 20?
Ans. true

Qu. Report whether reported Activity is lower than 20 (strictly) for "CCCCCCCCCCCCCC[C@@H](O)[C@@H](O)[C@H](CO[C@H]1O[C@H](CO)[C@H](O)[C@H](O)[C@H]1O)NC(=O)CCCCCCCCCCc1ccccc1"
Ans. false
